- Experiment: activity coefficient (dimensionless); of the first substance listed, at infinite dilution; xn = mol fraction of the nth substance listed
- Setup conditions: 318.15 K; Liquid; Chromatography; x1 = 0
What activity coefficient was measured for each of the following?

Quick note, activity coefficient for CO [methanol] + CCCC[N+]1(C)CCCCC1.N#C[S-] landed at 0.366

Short answer for C=CCCCC [hex-1-ene] + CCCC[N+]1(C)CCCCC1.N#C[S-] : activity coefficient was 41.3

Entry CCCCCCC [heptane] + CCCC[N+]1(C)CCCCC1.N#C[S-] , activity coefficient reported as 170

Quick note, activity coefficient for Cc1ccccc1C [1,2-dimethylbenzene] + CCCC[N+]1(C)CCCCC1.N#C[S-] landed at 4.15

The measured activity coefficient associated with Cc1ccccc1 [toluene] + CCCC[N+]1(C)CCCCC1.N#C[S-] reads 3.14

activity coefficient reported for this compound CCCCCCCCC [nonane] + CCCC[N+]1(C)CCCCC1.N#C[S-] : 333

response.value for C1CCOC1 [tetrahydrofuran] + CCCC[N+]1(C)CCCCC1.N#C[S-] (field: activity coefficient) = 2.28

Sure, the documented activity coefficient for C#CCCCCC [1-heptyne] + CCCC[N+]1(C)CCCCC1.N#C[S-] is 9.17

For this compound ( CCCCCC [hexane] + CCCC[N+]1(C)CCCCC1.N#C[S-] ), measured activity coefficient is 124

Form: compound = c1ccccc1 [benzene] + CCCC[N+]1(C)CCCCC1.N#C[S-] ; activity coefficient = 1.9

---

- Experiment: activity coefficient (dimensionless); of the first substance listed, at infinite dilution; xn = mol fraction of the nth substance listed
- Setup conditions: 328.15 K; Liquid; Chromatography; x1 = 0
# label = true if activity coefficient < 5 else false

Prompt line: Given O [water] + CCCC[N+]1(C)CCCCC1.N#C[S-] , is recorded activity coefficient strictly lower than 5?
Response line: true

Prompt line: For CCCCCC [hexane] + CCCC[N+]1(C)CCCCC1.N#C[S-] , is the recorded activity coefficient below the cut-off of 5?
Response line: false

Prompt line: Given C1CCCCCC1 [cycloheptane] + CCCC[N+]1(C)CCCCC1.N#C[S-] , is recorded activity coefficient strictly lower than 5?
Response line: false

Prompt line: Does this compound meet the criterion activity coefficient < 5? C#CCCCCC [1-heptyne] + CCCC[N+]1(C)CCCCC1.N#C[S-]
Response line: false

Prompt line: Quick check: does C#CCCCC [1-hexyne] + CCCC[N+]1(C)CCCCC1.N#C[S-] have activity coefficient under 5?
Response line: false

Prompt line: Answer whether the compound CCCCCCCCCC [decane] + CCCC[N+]1(C)CCCCC1.N#C[S-] has activity coefficient strictly less than 5
Response line: false

Prompt line: I wonder whether CCO [ethanol] + CCCC[N+]1(C)CCCCC1.N#C[S-] has activity coefficient below 5. Can you tell?
Response line: true

Prompt line: Confirm or reject: activity coefficient of Cc1cccc(C)c1 [1,3-dimethylbenzene] + CCCC[N+]1(C)CCCCC1.N#C[S-] lies strictly below 5
Response line: false

Prompt line: Criterion: activity coefficient strictly below 5. Is it met by c1ccccc1 [benzene] + CCCC[N+]1(C)CCCCC1.N#C[S-] ?
Response line: true

Prompt line: Does the reported activity coefficient of the following compound sit strictly below 5? CCCCCCCC [octane] + CCCC[N+]1(C)CCCCC1.N#C[S-]
Response line: false
